Where do these numbers come from? They come from paper PMC3441732.

# Test system: T1, RESTV VP35 RBD (Reston virus (RESTV), UniProt Q8JPY0 205-329)
# T1 sequence: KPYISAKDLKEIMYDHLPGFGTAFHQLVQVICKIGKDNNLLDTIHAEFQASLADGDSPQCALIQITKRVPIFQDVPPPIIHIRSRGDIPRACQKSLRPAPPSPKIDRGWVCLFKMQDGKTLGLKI
# Run description: dual-filter dot blot; Hill 2.6±0.2; 10 mM Tris pH 8.0, 200 mM NaCl, 2 mM TCEP ([…], and ITC); temperature not stated
# Test settings: protein: recombinant; tags: 6xHis, cleaved; chain copies: 2; label: 5'-32P sense strand (dot blot); none in ITC; blunt
Endpoint: Kd

>>> value("18-bp blunt-ended dsRNA (dsRNA) RNA 1: AGAAGGAGGGAGGGAGGA RNA 2: UCCUCCCUCCCUCCUUCU")
"2500 nM"
